species: Homo sapiens; assay: Selectivity ratio of Ki for human prostanoid TP receptor to Ki for human prostanoid EP4
Property: Ratio Ki; scope: individual compounds

// solved cases for Ratio Ki follow
Enquiry: Indicate the recorded Ratio Ki value for this compound: C[C@H](NC(=O)c1cccc2c1N(Cc1ccc(C(F)(F)F)cc1Br)CC2)c1ccc(C(=O)O)cc1
Return: > 1000

Enquiry: Identify Ratio Ki associated with the compound C[C@H](NC(=O)c1cccc2c1N(Cc1cccc(C(N)=O)c1)CC2)c1ccc(C(=O)O)cc1
Return: > 1000

Enquiry: State its Ratio Ki: C[C@H](NC(=O)c1cccc2c1N(Cc1cccc(Cl)c1)CC2)c1ccc(C(=O)O)cc1
Return: > 1000

Enquiry: Retrieve Ratio Ki measured for C[C@H](NC(=O)c1cc(Cl)cc2c1N(Cc1ccc(C(F)(F)F)cc1)CC2)c1ccc(C(=O)O)cc1 and print it.
Return: > 1000

Enquiry: Specify measured Ratio Ki for C[C@H](NC(=O)c1cccc2c1N(Cc1ccc(C(=O)O)cc1)CC2)c1ccc(C(=O)O)cc1 .
Return: > 1000

Enquiry: Indicate its recorded Ratio Ki; the compound in question is C[C@H](NC(=O)c1cccc2c1N(Cc1ccc(C#N)cc1)CC2)c1ccc(C(=O)O)cc1
Return: > 1000

Query compound follows.
Enquiry: Fill in reported Ratio Ki for this entry: C[C@H](NC(=O)c1cccc2ccn(Cc3cccc(Cl)c3)c12)c1ccc(C(=O)O)cc1
Return: > 1000

----------
biological target: Prostaglandin E2 receptor EP4 subtype (Homo sapiens, UniProt P35408); assay: Antagonist activity at human prostanoid EP4 receptor expressed in HEK293 cells assessed as inhibition of PGE2-induced cAMP accumulation by scintillation proximity assay
Sequence (P35408 whole entry): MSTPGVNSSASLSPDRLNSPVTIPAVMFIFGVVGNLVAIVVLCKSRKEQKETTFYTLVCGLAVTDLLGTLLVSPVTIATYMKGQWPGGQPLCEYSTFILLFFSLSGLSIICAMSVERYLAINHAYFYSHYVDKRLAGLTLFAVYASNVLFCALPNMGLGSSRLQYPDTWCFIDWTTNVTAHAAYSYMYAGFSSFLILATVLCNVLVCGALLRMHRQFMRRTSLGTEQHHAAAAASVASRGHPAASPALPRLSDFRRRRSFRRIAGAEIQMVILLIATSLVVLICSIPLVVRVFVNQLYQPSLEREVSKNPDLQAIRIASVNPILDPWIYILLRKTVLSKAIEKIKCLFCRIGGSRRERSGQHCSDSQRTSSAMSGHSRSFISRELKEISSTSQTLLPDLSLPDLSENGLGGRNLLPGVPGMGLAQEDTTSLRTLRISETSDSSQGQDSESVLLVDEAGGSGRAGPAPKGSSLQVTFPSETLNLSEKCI
MEASUREMENT TYPE: pIC50
The read-out pIC50 is expressed as -log10 of concentration in moles per litre.

Below: 3 compounds and their reported pIC50.
Enquiry: Answer with the recorded pIC50 for the compound listed here: C[C@H](NC(=O)c1cccc2c1N(Cc1ccc(Cl)cc1Br)CC2)c1ccc(C(=O)O)cc1
Return: 8.08

Enquiry: Please list pIC50 recorded for the compound C[C@H](NC(=O)c1cc(Cl)cc2c1N(Cc1ccc(C(F)(F)F)cc1)CC2)c1ccc(C(=O)O)cc1
Return: 8.66

Enquiry: Please look at this compound and report its pIC50: C[C@H](NC(=O)c1cccc2c1N(Cc1ccc(C(N)=O)cc1)CC2)c1ccc(C(=O)O)cc1
Return: 7.14

# context switch: different compound, same pIC50
Enquiry: Given the compound C[C@H](NC(=O)c1cccc2c1N(Cc1ccc(OC(F)(F)F)cc1)CC2)c1ccc(C(=O)O)cc1 , write its reported pIC50.
Return: 8.55

----------
biological target: Prostaglandin E2 receptor EP4 subtype (Homo sapiens)
Attribute: log10 Ki
Log10 applied to Ki; unit prior to transform: nM.

Take a look at these entries with their results.
Enquiry: Indicate its recorded log10 Ki; the molecule in question is C[C@H](NC(=O)c1cccc2c1N(Cc1ccc(C(N)=O)cc1)CC2)c1ccc(C(=O)O)cc1
Return: 1.48

Enquiry: Name the recorded log10 Ki of the molecule listed here: C[C@H](NC(=O)c1cccc2c1N(Cc1ccc(Cl)cc1Br)CC2)c1ccc(C(=O)O)cc1
Return: 0.36

Enquiry: Look up and report measured log10 Ki for this entry: C[C@H](NC(=O)c1cc(Cl)cc2c1N(Cc1ccc(C(F)(F)F)cc1)CC2)c1ccc(C(=O)O)cc1
Return: -0.40

Enquiry: // fetch log10 Ki given entry C[C@H](NC(=O)c1cccc2c1N(Cc1ccc(C#N)cc1)CC2)c1ccc(C(=O)O)cc1
Return: 0.49

Enquiry: Please report log10 Ki for the following molecule: C[C@H](NC(=O)c1cccc2c1N(Cc1cccc(C#N)c1)CC2)c1ccc(C(=O)O)cc1
Return: 0.88

Enquiry: Given the molecule C[C@H](NC(=O)c1cccc2c1N(Cc1ccc(Cl)c(Cl)c1)CC2)c1ccc(C(=O)O)cc1 , write its reported log10 Ki.
Return: -0.47

***
Enquiry: Give log10 Ki for the following molecule: C[C@H](NC(=O)c1cccc2c1N(Cc1ccc(C(C)(C)C)cc1)CC2)c1ccc(C(=O)O)cc1
Return: 1.15

Enquiry: Answer with reported log10 Ki of C[C@H](NC(=O)c1cccc2c1N(Cc1cccc(Cl)c1)CC2)c1ccc(C(=O)O)cc1
Return: -0.36

Enquiry: State its log10 Ki: C[C@H](NC(=O)c1cccc2c1N(Cc1ccc(Cl)cc1)CC2)c1ccc(C(=O)O)cc1
Return: -0.36

Enquiry: Identify measured log10 Ki associated with C[C@H](NC(=O)c1cccc2c1N(Cc1ccc(F)cc1)CC2)c1ccc(C(=O)O)cc1
Return: 0.26

Enquiry: Give the reported log10 Ki for this molecule. C[C@H](NC(=O)c1cccc2c1N(Cc1cccnc1)CC2)c1ccc(C(=O)O)cc1
Return: 1.88

Enquiry: Name the recorded log10 Ki of the molecule listed here: C[C@H](NC(=O)c1cc(F)cc2c1N(Cc1ccc(C(F)(F)F)cc1)CC2)c1ccc(C(=O)O)cc1
Return: -0.43

----------
assay: Half life in rat at 20 mg/kg, po and 5 mg/kg, iv; type: ADME, organism-based; conditions: in vivo
So basically: is half-life under 4 h? Then TRUE. Not under? Then FALSE.

Record excerpt, results attached:
Enquiry: Bench note: check whether C[C@H](NC(=O)c1cccc2c1N(Cc1ccc(C(F)(F)F)cc1)CC2)c1ccc(-c2nnn[nH]2)cc1 shows half-life below 4 h
Return: TRUE

Enquiry: In plain terms, does C[C@H](NC(=O)c1cccc2c1N(Cc1ccc(Cl)c(Cl)c1)CC2)c1ccc(C(=O)O)cc1 come in under 4 h for half-life?
Return: FALSE

---
Enquiry: Consider C[C@H](NC(=O)c1cccc2c1N(Cc1ccc(Cl)cc1)CC2)c1ccc(C(=O)O)cc1 . Does its half-life lie strictly below 4 h?
Return: FALSE

Enquiry: Lab log: compare recorded half-life with 4 h; is it strictly lower for C[C@H](NC(=O)c1cccc2c1N(Cc1cccc(Cl)c1)CC2)c1ccc(C(=O)O)cc1 ?
Return: FALSE

----------
Measured bioavailability of individual entries
test: Bioavailability in rat at 20 mg/kg, po and 5 mg/kg, iv; assay type: ADME, organism-based; conditions: in vivo
# output: bare number, implied unit %

These recorded examples may help you get a feel for the data.
Enquiry: Provide only the value of recorded bioavailability for C[C@H](NC(=O)c1cccc2c1N(Cc1ccc(Cl)c(Cl)c1)CC2)c1ccc(C(=O)O)cc1
Return: 73

Enquiry: Read off the recorded bioavailability for C[C@H](NC(=O)c1cccc2c1N(Cc1ccc(C(F)(F)F)cc1)CC2)c1ccc(-c2nnn[nH]2)cc1
Return: 54

Enquiry: Determine from records and report bioavailability for C[C@H](NC(=O)c1cccc2c1N(Cc1ccc(C(F)(F)F)cc1)CC2)c1ccc(C(=O)O)cc1
Return: 48

More entries:
Enquiry: Report measured bioavailability; entry is C[C@H](NC(=O)c1cccc2c1N(Cc1cccc(Cl)c1)CC2)c1ccc(C(=O)O)cc1
Return: 65

Enquiry: Report bioavailability for C[C@H](NC(=O)c1cccc2c1N(Cc1ccc(Cl)cc1)CC2)c1ccc(C(=O)O)cc1
Return: 102

----------
Known Ratio Ki of a selection of molecules
species on record: Homo sapiens; experiment: Selectivity ratio of Ki for human prostanoid DP receptor to Ki for human prostanoid EP4
Hey, just send me the number, nothing else.

Enquiry: Check the records and state Ratio Ki for C[C@H](NC(=O)c1cccc2c1N(Cc1cc(Br)cc(Br)c1)CC2)c1ccc(C(=O)O)cc1
Return: 209

Proceeding to the next molecule to report its Ratio Ki.
Enquiry: State its Ratio Ki: C[C@H](NC(=O)c1cc(Cl)cc2c1N(Cc1ccc(C(F)(F)F)cc1)CC2)c1ccc(C(=O)O)cc1
Return: 670

----------
Collected IC50 values appear next to each entry.
target: Prostaglandin E2 receptor EP4 subtype (Homo sapiens, UniProt P35408); experiment: Antagonist activity at human prostanoid EP4 receptor expressed in HEK293 cells assessed as inhibition of PGE2-induced cAMP accumulation by scintillation proximity assay
Answer format: numeric, nM implied, no suffix.

Enquiry: Give a short answer stating reported IC50 for C[C@H](NC(=O)c1cccc2c1N(Cc1cccnc1)CC2)c1ccc(C(=O)O)cc1 .
Return: 258

Enquiry: Assign IC50 to the following record: C[C@H](NC(=O)c1cccc2c1N(Cc1ccc(C(F)(F)F)cc1)CC2)c1ccc(-c2nnn[nH]2)cc1
Return: 3.5

Enquiry: Quote IC50 reported for C[C@H](NC(=O)c1cccc2c1N(Cc1cccc(C(N)=O)c1)CC2)c1ccc(C(=O)O)cc1 please.
Return: 72

Enquiry: Given the compound C[C@H](NC(=O)c1cccc2c1N(Cc1cccc(C#N)c1)CC2)c1ccc(C(=O)O)cc1 , write its reported IC50.
Return: 212

Enquiry: Look up and report measured IC50 for this entry: C[C@H](NC(=O)c1cccc2ccn(Cc3cccc(Cl)c3)c12)c1ccc(C(=O)O)cc1
Return: 6

Enquiry: Quick one: give measured IC50 for Cc1ccc(CN2CCc3cccc(C(=O)N[C@@H](C)c4ccc(C(=O)O)cc4)c32)cc1
Return: 5.8

Consider now this further compound.
Enquiry: // Input: C[C@H](NC(=O)c1cccc2c1N(Cc1ccc(C(F)(F)F)cc1Br)CC2)c1ccc(C(=O)O)cc1 . Output its IC50 only.
Return: 4.7
